target-system: UniProt:Q9UBN7
Sequence (Q9UBN7 whole entry): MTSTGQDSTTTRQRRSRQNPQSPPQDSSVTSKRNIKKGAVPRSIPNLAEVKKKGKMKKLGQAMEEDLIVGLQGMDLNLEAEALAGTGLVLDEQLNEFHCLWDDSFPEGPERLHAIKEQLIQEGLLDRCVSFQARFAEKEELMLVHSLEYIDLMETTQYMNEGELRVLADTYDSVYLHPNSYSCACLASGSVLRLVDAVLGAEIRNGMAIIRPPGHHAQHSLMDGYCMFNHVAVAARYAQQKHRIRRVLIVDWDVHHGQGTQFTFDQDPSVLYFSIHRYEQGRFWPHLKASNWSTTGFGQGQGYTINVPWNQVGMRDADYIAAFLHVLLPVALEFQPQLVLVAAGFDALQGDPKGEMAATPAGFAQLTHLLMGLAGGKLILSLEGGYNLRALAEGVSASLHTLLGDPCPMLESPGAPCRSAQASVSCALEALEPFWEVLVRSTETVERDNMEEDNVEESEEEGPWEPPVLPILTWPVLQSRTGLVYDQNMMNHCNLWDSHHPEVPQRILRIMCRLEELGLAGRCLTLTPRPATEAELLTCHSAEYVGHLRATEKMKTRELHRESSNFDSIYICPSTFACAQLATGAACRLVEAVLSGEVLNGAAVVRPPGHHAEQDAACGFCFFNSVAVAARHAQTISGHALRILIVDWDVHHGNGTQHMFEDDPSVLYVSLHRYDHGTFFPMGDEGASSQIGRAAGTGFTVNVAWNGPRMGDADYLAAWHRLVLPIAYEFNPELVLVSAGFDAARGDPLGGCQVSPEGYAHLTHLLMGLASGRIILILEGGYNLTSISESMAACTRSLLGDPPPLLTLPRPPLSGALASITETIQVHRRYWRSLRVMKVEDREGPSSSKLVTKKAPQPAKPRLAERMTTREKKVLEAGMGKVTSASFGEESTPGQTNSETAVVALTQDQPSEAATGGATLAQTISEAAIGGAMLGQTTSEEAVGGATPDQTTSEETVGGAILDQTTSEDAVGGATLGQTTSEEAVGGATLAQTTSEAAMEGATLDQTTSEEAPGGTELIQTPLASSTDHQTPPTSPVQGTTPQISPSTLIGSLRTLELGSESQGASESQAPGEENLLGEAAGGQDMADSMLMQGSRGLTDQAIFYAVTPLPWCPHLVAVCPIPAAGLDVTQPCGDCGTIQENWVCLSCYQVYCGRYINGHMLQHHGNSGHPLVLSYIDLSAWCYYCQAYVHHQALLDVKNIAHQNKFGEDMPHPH
endpoint: Ki (nM)
Give just the numeric value; nM need not be written.

Lookup: # assay system UniProt:Q9UBN7: give Ki of O=C(CCCCCCC(=O)Nc1ccc([C@H]2O[C@@H](CSc3ccncc3)C[C@@H](c3ccccc3)O2)cc1)NO
Found: 28
